Field: log10(EC50). Provide a value for each of the binders that follow.
- EXPERIMENTAL_TARGET: A/HongKong/213/2003 (H5N1) inactivated viral preparation (Influenza A virus A/HongKong/213/2003 (H5N1))
- TEST_DETAILS: ELISA, inactivated virus
Heads up: the numbers are on a log10 scale; they represent EC50 in µg/mL.

Measured log10(EC50), R1a-C5 (VHH) VHH: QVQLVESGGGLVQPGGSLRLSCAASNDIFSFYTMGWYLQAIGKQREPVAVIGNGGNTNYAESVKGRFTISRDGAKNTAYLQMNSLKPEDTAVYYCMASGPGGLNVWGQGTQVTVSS : 0.46

R1a-B6 (VHH) VHH: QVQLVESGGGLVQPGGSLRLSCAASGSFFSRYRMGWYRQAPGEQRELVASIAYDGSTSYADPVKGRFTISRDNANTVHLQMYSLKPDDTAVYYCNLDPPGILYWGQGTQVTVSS yielded log10(EC50) of -0.43

Documented log10(EC50) of R2b-D9 (VHH) VHH: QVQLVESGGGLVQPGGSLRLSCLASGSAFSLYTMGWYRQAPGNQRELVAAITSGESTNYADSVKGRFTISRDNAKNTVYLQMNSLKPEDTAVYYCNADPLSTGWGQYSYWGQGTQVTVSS : 0.45

Short answer for R2a-G8 (VHH) VHH: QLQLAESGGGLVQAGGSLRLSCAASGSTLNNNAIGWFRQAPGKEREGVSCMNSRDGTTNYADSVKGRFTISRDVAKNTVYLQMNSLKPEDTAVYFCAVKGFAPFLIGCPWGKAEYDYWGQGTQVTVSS : log10(EC50) was 0.79

Query R2b-E8 (VHH) VHH: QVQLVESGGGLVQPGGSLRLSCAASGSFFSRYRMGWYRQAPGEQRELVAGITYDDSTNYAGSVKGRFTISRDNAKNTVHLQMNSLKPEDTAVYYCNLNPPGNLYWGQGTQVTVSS yields log10(EC50) of 0.08

binder R1a-A5 (VHH) VHH: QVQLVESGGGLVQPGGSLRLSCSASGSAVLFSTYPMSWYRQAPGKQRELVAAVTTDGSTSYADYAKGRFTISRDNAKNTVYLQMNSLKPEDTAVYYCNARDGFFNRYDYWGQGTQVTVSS , log10(EC50) observed: -0.57

Source listed as patent US20140302063A1.
